Target: L. monocytogenes AgrC (Listeria monocytogenes (EGD-e))
Assay: cell-based or functional assay
Bridges are numbered along the chain shown (N, C = ends). Where no end group is shown, it is not given here.
observed_property: Max Inhibition (agr-GFP reporter, wild-type strain)
The reply should read as a number followed by its unit.

Ask: For the binder YSTCYFIM (not fully specified; thiolactone ring Cys4-Met8 (Cys side chain to C-terminal carboxyl)) [Sa AIP-IV] , give its reported Max Inhibition (agr-GFP reporter, wild-type strain).
Reply: 8.56%

Ask: For the binder GVNACSSLF (not fully specified; thiolactone ring Cys5-Phe9 (Cys side chain to C-terminal carboxyl)) [Sa AIP-II] , give its reported Max Inhibition (agr-GFP reporter, wild-type strain).
Reply: 0%

Ask: For the binder INCAFLL (bridge 3-C; also: thiolactone: Cys3 side chain to C-terminal carboxyl) [Sa AIP-III D4A] , give its reported Max Inhibition (agr-GFP reporter, wild-type strain).
Reply: 5.87%

Ask: For the binder YSTCDFIM (not fully specified; thiolactone ring Cys4-Met8 (Cys side chain to C-terminal carboxyl)) [Sa AIP-I] , give its reported Max Inhibition (agr-GFP reporter, wild-type strain).
Reply: 1.29%

Numbers sourced from patent US12116424.
